target-system: BMP-2-inducible protein kinase (Homo sapiens); also: in the data inactive means no Kd found up to 30 µM
Sequence (Q9NSY1 whole entry): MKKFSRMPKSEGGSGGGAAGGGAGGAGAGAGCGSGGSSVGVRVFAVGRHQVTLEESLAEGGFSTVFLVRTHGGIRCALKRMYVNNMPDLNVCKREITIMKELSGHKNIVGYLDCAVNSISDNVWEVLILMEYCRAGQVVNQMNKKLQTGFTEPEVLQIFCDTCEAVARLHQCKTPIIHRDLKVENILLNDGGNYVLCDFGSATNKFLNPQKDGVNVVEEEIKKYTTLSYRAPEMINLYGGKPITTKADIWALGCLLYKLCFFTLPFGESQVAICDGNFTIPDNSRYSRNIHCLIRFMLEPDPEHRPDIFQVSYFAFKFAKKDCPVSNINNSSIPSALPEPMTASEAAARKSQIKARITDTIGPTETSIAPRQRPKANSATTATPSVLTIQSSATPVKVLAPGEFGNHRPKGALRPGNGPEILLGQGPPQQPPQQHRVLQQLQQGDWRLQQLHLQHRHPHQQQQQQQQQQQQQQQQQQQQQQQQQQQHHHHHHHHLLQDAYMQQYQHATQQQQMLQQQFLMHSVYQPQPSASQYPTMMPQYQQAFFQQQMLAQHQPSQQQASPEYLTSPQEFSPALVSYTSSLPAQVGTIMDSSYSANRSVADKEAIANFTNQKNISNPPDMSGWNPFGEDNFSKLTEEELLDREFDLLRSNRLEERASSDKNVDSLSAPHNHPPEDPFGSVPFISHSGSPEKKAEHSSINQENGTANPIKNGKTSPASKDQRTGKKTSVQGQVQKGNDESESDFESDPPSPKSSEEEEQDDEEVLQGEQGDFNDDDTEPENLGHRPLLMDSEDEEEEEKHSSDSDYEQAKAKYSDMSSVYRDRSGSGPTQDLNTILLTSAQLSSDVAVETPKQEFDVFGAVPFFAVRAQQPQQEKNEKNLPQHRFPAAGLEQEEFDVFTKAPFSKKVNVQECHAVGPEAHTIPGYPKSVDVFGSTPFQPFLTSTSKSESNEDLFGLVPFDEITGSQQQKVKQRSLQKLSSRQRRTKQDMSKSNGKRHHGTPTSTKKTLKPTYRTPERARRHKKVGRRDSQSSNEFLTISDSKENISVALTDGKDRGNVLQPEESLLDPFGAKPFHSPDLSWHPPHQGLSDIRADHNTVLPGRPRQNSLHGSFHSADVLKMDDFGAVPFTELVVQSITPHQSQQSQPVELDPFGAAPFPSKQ
Active and inactive are the calls of the source.
Labels: active, inactive

{"molecule": "C[C@@H](c1ccc2nccn2c1)n1nnc2ncc(-c3cnn(C)c3)nc21 [SAVOLITINIB]", "discrete-label": "inactive"}
{"molecule": "CNS(=O)(=O)Nc1nccc(Cc2c(C)c3ccc(Oc4ncccn4)cc3oc2=O)c1F [AVUTOMETINIB]", "discrete-label": "inactive"}
{"molecule": "C[C@@H](Nc1cc(F)cc(F)c1)c1cc(C(=O)N(C)C)cc2c(=O)cc(N3CCOCC3)oc12 [AZD-8186]", "discrete-label": "inactive"}
{"molecule": "COC(=O)N[C@@H](C)CNc1nccc(-c2cn(C(C)C)nc2-c2cc(Cl)cc(NS(C)(=O)=O)c2F)n1 [ENCORAFENIB]", "discrete-label": "inactive"}
{"molecule": "CC[C@H](Nc1ncnc2[nH]cnc12)c1nc2cccc(F)c2c(=O)n1-c1ccccc1 [IDELALISIB]", "discrete-label": "inactive"}
{"molecule": "Cc1cc(-c2cc(O)ccc2Cl)cc2nnc(Nc3ccc(OCCN4CCCC4)cc3)nc12", "discrete-label": "inactive"}
{"molecule": "Cc1ccc(S(=O)(=O)Nc2nc3ccccc3nc2Nc2ccc3nsnc3c2)cc1", "discrete-label": "inactive"}
{"molecule": "O=c1sn(-c2cccc3ccccc23)c(=O)n1Cc1ccccc1 [TIDEGLUSIB]", "discrete-label": "inactive"}
{"molecule": "COC(=O)[C@@]1(O)C[C@H]2O[C@]1(C)n1c3ccccc3c3c4c(c5c6ccccc6n2c5c31)C(=O)NC4 [K-252A]", "discrete-label": "active"}
{"molecule": "CC(C)Nc1cc(-c2c[nH]c(C(=O)N[C@H](CO)c3cccc(Cl)c3)c2)c(Cl)cn1 [ULIXERTINIB]", "discrete-label": "inactive"}
{"molecule": "COc1cc(N2CCC(N3CCN(C)CC3)CC2)ccc1Nc1ncnc(Nc2ccccc2S(=O)(=O)C(C)C)n1 [ASP-3026]", "discrete-label": "inactive"}
{"molecule": "Cn1cc(-c2ccc3nnc(C(F)(F)c4ccc5ncccc5c4)n3n2)cn1 [JNJ-38877605]", "discrete-label": "inactive"}
{"molecule": "COc1cc2nccc(Oc3ccc(NC(=O)Nc4cc(C)on4)c(Cl)c3)c2cc1OC [TIVOZANIB]", "discrete-label": "inactive"}
{"molecule": "CN(C)C(=O)c1cc2cnc(Nc3ccc(N4CCNCC4)cn3)nc2n1C1CCCC1 [RIBOCICLIB]", "discrete-label": "inactive"}
{"molecule": "C=CC(=O)N1CCC(Oc2cc3c(Nc4ccc(Cl)c(Cl)c4F)ncnc3cc2OC)CC1 [POZIOTINIB]", "discrete-label": "inactive"}
{"molecule": "Cc1cc2c(F)c(Oc3ncnn4cc(OC[C@@H](C)OC(=O)[C@H](C)N)c(C)c34)ccc2[nH]1 [BRIVANIB ALANINATE]", "discrete-label": "inactive"}
{"molecule": "CN1CCC(CNc2ccc3ncc(-c4cccc(OC(F)(F)F)c4)n3n2)CC1 [SGI-1776]", "discrete-label": "active"}

* * *

target-system: Tyrosine-protein kinase Lyn (Homo sapiens, UniProt P07948); also: in the data inactive means no Kd found up to 30 µM
Sequence (P07948 whole entry): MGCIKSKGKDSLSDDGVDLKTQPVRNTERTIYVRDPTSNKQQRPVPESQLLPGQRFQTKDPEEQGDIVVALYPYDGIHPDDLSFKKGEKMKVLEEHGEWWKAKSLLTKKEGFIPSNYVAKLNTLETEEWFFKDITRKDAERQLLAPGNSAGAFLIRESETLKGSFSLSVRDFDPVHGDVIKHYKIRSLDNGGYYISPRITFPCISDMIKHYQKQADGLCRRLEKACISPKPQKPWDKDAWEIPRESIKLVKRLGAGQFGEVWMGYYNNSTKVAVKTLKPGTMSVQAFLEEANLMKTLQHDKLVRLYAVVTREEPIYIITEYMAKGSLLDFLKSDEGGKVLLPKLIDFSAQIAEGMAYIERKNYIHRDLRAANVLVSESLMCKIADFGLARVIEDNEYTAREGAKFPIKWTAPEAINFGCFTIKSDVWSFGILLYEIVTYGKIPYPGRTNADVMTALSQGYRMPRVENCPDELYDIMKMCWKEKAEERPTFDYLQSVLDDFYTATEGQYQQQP
Activity calls are given as the source filed them.
Labels: active, inactive

{"molecule": "CCN1CCN(Cc2ccc(-c3cc4c(N[C@H](C)c5ccccc5)ncnc4[nH]3)cc2)CC1 [AEE-788]", "discrete-label": "inactive"}
{"molecule": "CCCS(=O)(=O)Nc1ccc(F)c(C(=O)c2c[nH]c3ncc(-c4ccc(Cl)cc4)cc23)c1F [VEMURAFENIB]", "discrete-label": "inactive"}
{"molecule": "CNS(=O)(=O)Nc1nccc(Cc2c(C)c3ccc(Oc4ncccn4)cc3oc2=O)c1F [AVUTOMETINIB]", "discrete-label": "inactive"}
{"molecule": "COc1cc(N2CCC(N3CCN(C)CC3)CC2)ccc1Nc1ncnc(Nc2ccccc2S(=O)(=O)C(C)C)n1 [ASP-3026]", "discrete-label": "inactive"}
{"molecule": "Cc1ccc(NC(=O)c2ccc(CN3CC[C@H](N(C)C)C3)c(C(F)(F)F)c2)cc1Nc1nccc(-c2cncnc2)n1 [BAFETINIB]", "discrete-label": "active"}
{"molecule": "Cn1cc(-c2ccc3nnc(C(F)(F)c4ccc5ncccc5c4)n3n2)cn1 [JNJ-38877605]", "discrete-label": "inactive"}
{"molecule": "CN(C)C(=O)c1cc2cnc(Nc3ccc(N4CCNCC4)cn3)nc2n1C1CCCC1 [RIBOCICLIB]", "discrete-label": "inactive"}
{"molecule": "C[C@@H](c1ccc2nccn2c1)n1nnc2ncc(-c3cnn(C)c3)nc21 [SAVOLITINIB]", "discrete-label": "inactive"}

* * *

target-system: Eukaryotic translation initiation factor 2-alpha kinase 1 (Homo sapiens); also: in the data inactive means no Kd found up to 30 µM
Sequence (Q9BQI3 whole entry): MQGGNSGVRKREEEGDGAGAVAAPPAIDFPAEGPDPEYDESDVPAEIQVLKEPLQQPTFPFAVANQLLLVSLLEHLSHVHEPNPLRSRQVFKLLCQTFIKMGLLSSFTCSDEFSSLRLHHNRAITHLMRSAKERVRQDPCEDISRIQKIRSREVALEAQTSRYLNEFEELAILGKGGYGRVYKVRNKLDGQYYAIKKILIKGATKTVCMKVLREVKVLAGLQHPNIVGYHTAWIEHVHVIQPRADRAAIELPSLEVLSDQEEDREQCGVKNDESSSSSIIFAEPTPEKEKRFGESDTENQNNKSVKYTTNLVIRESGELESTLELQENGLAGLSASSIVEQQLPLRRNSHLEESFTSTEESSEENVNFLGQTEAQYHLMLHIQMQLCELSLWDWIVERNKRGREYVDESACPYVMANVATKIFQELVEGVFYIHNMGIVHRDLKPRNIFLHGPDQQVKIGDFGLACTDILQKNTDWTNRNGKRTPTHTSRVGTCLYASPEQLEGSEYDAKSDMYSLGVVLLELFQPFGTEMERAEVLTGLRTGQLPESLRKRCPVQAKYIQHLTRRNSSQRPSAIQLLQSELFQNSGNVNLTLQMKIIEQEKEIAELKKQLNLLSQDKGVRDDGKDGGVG
Active and inactive are the calls of the source.
Labels: active, inactive

{"molecule": "CNC(=O)c1ccc(C)c(-n2c(C)cc(OCc3ccc(F)cc3F)c(Br)c2=O)c1", "discrete-label": "inactive"}
{"molecule": "CNC(=O)c1cc(Oc2ccc(NC(=O)Nc3ccc(Cl)c(C(F)(F)F)c3)c(F)c2)ccn1", "discrete-label": "inactive"}
{"molecule": "Cc1c(F)cc(C(=O)NC2CC2)cc1-c1ccc(C(=O)NCC(C)(C)C)cn1", "discrete-label": "inactive"}
{"molecule": "COc1cc(CCc2cc(NC(=O)c3ccc(N4C[C@@H](C)N[C@@H](C)C4)cc3)n[nH]2)cc(OC)c1", "discrete-label": "active"}
{"molecule": "COc1ccc(-c2ccc3c(N4CCOC[C@@H]4C)nc(N4CCOC[C@@H]4C)nc3n2)cc1CO", "discrete-label": "inactive"}
{"molecule": "COc1cc(OC)c(/C=C/S(=O)(=O)Cc2ccc(OC)c(NCC(=O)O)c2)c(OC)c1", "discrete-label": "inactive"}
{"molecule": "O=C1NC(=O)/C(=C/c2ccc3nccc(-c4ccncc4)c3c2)S1", "discrete-label": "inactive"}
{"molecule": "COC(=O)[C@@]1(O)C[C@H]2O[C@]1(C)n1c3ccccc3c3c4c(c5c6ccccc6n2c5c31)C(=O)NC4 [K-252A]", "discrete-label": "inactive"}

* * *

target-system: Serine/threonine-protein kinase 3 (Homo sapiens, UniProt Q13188); also: in the data inactive means no Kd found up to 30 µM
Sequence (Q13188 whole entry): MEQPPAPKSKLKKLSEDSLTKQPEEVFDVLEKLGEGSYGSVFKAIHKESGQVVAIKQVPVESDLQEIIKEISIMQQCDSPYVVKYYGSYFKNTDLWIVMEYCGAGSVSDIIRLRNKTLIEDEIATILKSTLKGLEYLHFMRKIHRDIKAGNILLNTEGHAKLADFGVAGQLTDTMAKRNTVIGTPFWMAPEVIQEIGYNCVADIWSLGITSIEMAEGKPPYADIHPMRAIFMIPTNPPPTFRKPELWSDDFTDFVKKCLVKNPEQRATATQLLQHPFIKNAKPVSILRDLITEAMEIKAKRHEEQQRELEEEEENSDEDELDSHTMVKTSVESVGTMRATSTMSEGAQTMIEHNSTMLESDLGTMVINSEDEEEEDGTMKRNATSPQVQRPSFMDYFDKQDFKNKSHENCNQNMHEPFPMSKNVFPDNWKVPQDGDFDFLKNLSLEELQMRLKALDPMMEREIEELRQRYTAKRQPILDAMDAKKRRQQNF
Calls of active or inactive are those of the source.
Labels: T = active, F = inactive

{"mol-smiles": "Cn1ncc(Cl)c1-c1cc(C(=O)N[C@H](CN)Cc2cccc(F)c2)sc1Cl", "discrete-label": "F"}
{"mol-smiles": "CN1CC[C@@H](c2c(O)cc(O)c3c(=O)cc(-c4ccccc4Cl)oc23)[C@@H]1CO", "discrete-label": "F"}
{"mol-smiles": "O=C(O)[C@]1(Cc2cccc(Nc3nccs3)n2)CC[C@@H](Oc2cccc(Cl)c2F)CC1", "discrete-label": "T"}
{"mol-smiles": "C[C@@H](c1ccc2nccn2c1)n1nnc2ncc(-c3cnn(C)c3)nc21", "discrete-label": "F"}
{"mol-smiles": "Cc1c(F)cc(C(=O)NC2CC2)cc1-c1ccc(C(=O)NCC(C)(C)C)cn1", "discrete-label": "F"}
{"mol-smiles": "CN1CCC(COc2cnc(-c3cccc(Cn4nc(-c5cccc(C#N)c5)ccc4=O)c3)nc2)CC1", "discrete-label": "F"}
{"mol-smiles": "COc1ccc(-c2ccc3c(N4CCOC[C@@H]4C)nc(N4CCOC[C@@H]4C)nc3n2)cc1CO", "discrete-label": "F"}
{"mol-smiles": "CN1CCC(CNc2ccc3ncc(-c4cccc(OC(F)(F)F)c4)n3n2)CC1", "discrete-label": "F"}
{"mol-smiles": "COCCNCc1ccc(-c2cc3nccc(Oc4ccc(NC(=S)NC(=O)Cc5ccc(F)cc5)cc4F)c3s2)nc1", "discrete-label": "F"}
{"mol-smiles": "CC(C)Nc1cc(-c2c[nH]c(C(=O)N[C@H](CO)c3cccc(Cl)c3)c2)c(Cl)cn1", "discrete-label": "F"}
{"mol-smiles": "COc1cc(OC)c(/C=C/S(=O)(=O)Cc2ccc(OC)c(NCC(=O)O)c2)c(OC)c1", "discrete-label": "F"}
{"mol-smiles": "CNC(=O)c1cc(Oc2ccc(NC(=O)Nc3ccc(Cl)c(C(F)(F)F)c3)c(F)c2)ccn1", "discrete-label": "F"}
{"mol-smiles": "COc1cc2nccc(Oc3ccc(NC(=O)Nc4cc(C)on4)c(Cl)c3)c2cc1OC", "discrete-label": "F"}
{"mol-smiles": "Cc1ccc(S(=O)(=O)Nc2nc3ccccc3nc2Nc2ccc3nsnc3c2)cc1", "discrete-label": "F"}
{"mol-smiles": "C[C@@H]1CN(Cc2ccc(F)cc2)[C@@H](C)CN1C(=O)c1cc2c(C(=O)C(=O)N(C)C)cn(C)c2cc1Cl", "discrete-label": "F"}
{"mol-smiles": "Cc1ccc(-n2nc(C(C)(C)C)cc2NC(=O)NCc2cc(F)ccc2Oc2ccc3c(cnn3CCO)c2)cc1", "discrete-label": "F"}

* * *

target-system: Cytochrome c1, heme protein, mitochondrial (Homo sapiens); also: in the data inactive means no Kd found up to 30 µM
Sequence (P08574 whole entry): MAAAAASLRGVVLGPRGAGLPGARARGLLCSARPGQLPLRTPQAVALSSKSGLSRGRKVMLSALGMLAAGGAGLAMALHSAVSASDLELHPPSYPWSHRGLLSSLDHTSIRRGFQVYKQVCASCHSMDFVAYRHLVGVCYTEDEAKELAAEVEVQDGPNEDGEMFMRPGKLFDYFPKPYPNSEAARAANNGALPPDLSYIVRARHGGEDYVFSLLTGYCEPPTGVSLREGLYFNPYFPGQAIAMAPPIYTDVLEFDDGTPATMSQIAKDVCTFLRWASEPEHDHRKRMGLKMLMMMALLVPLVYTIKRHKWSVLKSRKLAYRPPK
Activity calls are given as the source filed them.

{"compound": "Cc1ccc(-n2nc(C(C)(C)C)cc2NC(=O)NCc2cc(F)ccc2Oc2ccc3c(cnn3CCO)c2)cc1 [PEXMETINIB]", "Kd": "> 30 µM (inactive)"}
{"compound": "O=C(Nc1ccc(-c2ccnc(Nc3ccc(N4CCOCC4)cc3)n2)cc1)C1CCCN1 (configuration not stated) [XL-019]", "Kd": "> 30 µM (inactive)"}
{"compound": "Cn1ncc(Cl)c1-c1cc(C(=O)N[C@H](CN)Cc2cccc(F)c2)sc1Cl [AFURESERTIB]", "Kd": "> 30 µM (inactive)"}
{"compound": "CN1CCC(CNc2ccc3ncc(-c4cccc(OC(F)(F)F)c4)n3n2)CC1 [SGI-1776]", "Kd": "> 30 µM (inactive)"}
{"compound": "CN1N=C(N)c2cn([C@@H]3O[C@H](COP(=O)(O)O)[C@@H](O)[C@H]3O)c3ncnc1c23 [TRICIRIBINE PHOSPHATE]", "Kd": "> 30 µM (inactive)"}
{"compound": "Cc1ccc(S(=O)(=O)Nc2nc3ccccc3nc2Nc2ccc3nsnc3c2)cc1", "Kd": "> 30 µM (inactive)"}
{"compound": "Cn1cc(-c2ccc3nnc(C(F)(F)c4ccc5ncccc5c4)n3n2)cn1 [JNJ-38877605]", "Kd": "> 30 µM (inactive)"}
{"compound": "O=C(c1ccc(F)c(F)c1Nc1ccc(I)cc1F)N1CC(O)([C@@H]2CCCCN2)C1 [COBIMETINIB]", "Kd": "> 30 µM (inactive)"}
{"compound": "O=C(O)[C@]1(Cc2cccc(Nc3nccs3)n2)CC[C@@H](Oc2cccc(Cl)c2F)CC1 [MK-5108]", "Kd": "> 30 µM (inactive)"}
{"compound": "CNC(=O)c1cc(Oc2ccc(NC(=O)Nc3ccc(Cl)c(C(F)(F)F)c3)c(F)c2)ccn1 [REGORAFENIB]", "Kd": "> 30 µM (inactive)"}
{"compound": "CNC(=O)c1ccc(-c2cnc3ncc(Cc4ccc5ncccc5c4)n3n2)cc1F [CAPMATINIB]", "Kd": "> 30 µM (inactive)"}
{"compound": "Cc1nc(N)sc1-c1ccnc(Nc2ccc(N3CCOCC3)cc2)n1 [CYC-116]", "Kd": "> 30 µM (inactive)"}
{"compound": "CN1CCN(c2ccc3nc(-c4c(N)c5c(F)cccc5[nH]c4=O)[nH]c3c2)CC1 [DOVITINIB]", "Kd": "> 30 µM (inactive)"}
{"compound": "CNS(=O)(=O)Nc1nccc(Cc2c(C)c3ccc(Oc4ncccn4)cc3oc2=O)c1F [AVUTOMETINIB]", "Kd": "> 30 µM (inactive)"}
{"compound": "CCS(=O)(=O)N1CC(CC#N)(n2cc(-c3ncnc4[nH]ccc34)cn2)C1 [BARICITINIB]", "Kd": "> 30 µM (inactive)"}
{"compound": "CN(C)C(=O)c1cc2cnc(Nc3ccc(N4CCNCC4)cn3)nc2n1C1CCCC1 [RIBOCICLIB]", "Kd": "> 30 µM (inactive)"}
{"compound": "C[C@@H](c1ccc2nccn2c1)n1nnc2ncc(-c3cnn(C)c3)nc21 [SAVOLITINIB]", "Kd": "> 30 µM (inactive)"}
{"compound": "COC(=O)N[C@@H](C)CNc1nccc(-c2cn(C(C)C)nc2-c2cc(Cl)cc(NS(C)(=O)=O)c2F)n1 [ENCORAFENIB]", "Kd": "> 30 µM (inactive)"}
{"compound": "Cc1c(F)cc(C(=O)NC2CC2)cc1-c1ccc(C(=O)NCC(C)(C)C)cn1 [LOSMAPIMOD]", "Kd": "> 30 µM (inactive)"}
{"compound": "C1=C/COCc2cc(ccc2OCCN2CCCC2)Nc2nccc(n2)-c2cccc(c2)COC/1 [PACRITINIB]", "Kd": "> 30 µM (inactive)"}
{"compound": "COc1cc2nccc(Oc3ccc(NC(=O)NC4CC4)c(Cl)c3)c2cc1C(N)=O [LENVATINIB]", "Kd": "> 30 µM (inactive)"}
{"compound": "O=c1sn(-c2cccc3ccccc23)c(=O)n1Cc1ccccc1 [TIDEGLUSIB]", "Kd": "> 30 µM (inactive)"}
{"compound": "COc1cc2nccc(Oc3ccc(NC(=O)Nc4cc(C)on4)c(Cl)c3)c2cc1OC [TIVOZANIB]", "Kd": "> 30 µM (inactive)"}
{"compound": "CCn1c(=O)c(-c2cc[nH]n2)cc2c(C)nc(N)nc21 [VOXTALISIB]", "Kd": "> 30 µM (inactive)"}
{"compound": "Cc1cc(Nc2cc(N3CCN(C)CC3)nc(/C=C/c3ccccc3)n2)n[nH]1 [ENMD-2076]", "Kd": "> 30 µM (inactive)"}
{"compound": "N[C@@H]1CCCN(c2c(/C=C3\\SC(=O)NC3=O)cccc2-c2ccccc2)C1", "Kd": "> 30 µM (inactive)"}
{"compound": "C[C@@H](Nc1cc(F)cc(F)c1)c1cc(C(=O)N(C)C)cc2c(=O)cc(N3CCOCC3)oc12 [AZD-8186]", "Kd": "> 30 µM (inactive)"}
{"compound": "CC[C@H](Nc1ncnc2[nH]cnc12)c1nc2cccc(F)c2c(=O)n1-c1ccccc1 [IDELALISIB]", "Kd": "> 30 µM (inactive)"}
{"compound": "CNC(=O)CN1CCC(Oc2cc3c(Nc4cccc(Cl)c4F)ncnc3cc2OC)CC1 [SAPITINIB]", "Kd": "> 30 µM (inactive)"}
{"compound": "OCCn1cc(-c2cnc3nnn(Cc4ccc5ncccc5c4)c3n2)cn1 [PF-04217903]", "Kd": "> 30 µM (inactive)"}
{"compound": "C=CC(=O)N1CCC(Oc2cc3c(Nc4ccc(Cl)c(Cl)c4F)ncnc3cc2OC)CC1 [POZIOTINIB]", "Kd": "> 30 µM (inactive)"}
{"compound": "CCn1c(-c2nonc2N)nc2c(C#CC(C)(C)O)ncc(OC[C@H]3CCCNC3)c21 [GSK-690693]", "Kd": "> 30 µM (inactive)"}
